Hey, just so you know, these numbers are from the supplement of paper PMC11208160.

Items are presented alongside their recorded recombinant barcode read abundance (log10).
ASSAY DETAILS: recombinant barcode read abundance after kanamycin selection (control-corrected) (log10(CPM+1)); higher = more efficient recombination; sequences stand for … in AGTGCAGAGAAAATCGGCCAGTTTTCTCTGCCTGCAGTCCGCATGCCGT…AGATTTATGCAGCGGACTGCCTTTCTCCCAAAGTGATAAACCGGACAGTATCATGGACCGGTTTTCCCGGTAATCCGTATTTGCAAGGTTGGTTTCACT; site = the 11-nt target
MEASURED QUANTITY: recombinant barcode read abundance (log10)

CTAGACTCTTGGGTTCTAACCTGTTGCAG (site CTAGACTCTTT)    0.376
TAGCGGACTTGGGTTCTAACCTGTTGCCT (site TAGCGGACTAG)    1.28
AAGGTACCTTGGGTTCTAACCTGTTGCGG (site AAGGTACCTCC)    2.69
GAGCGCTCTTGGGTTCTAACCTGTTGCTG (site GAGCGCTCTTA)    0.0132
TAGGGCCCTTGGGTTCTAACCTGTTGCCT (site AAGGGCCCTAG)    0.111

###

ASSAY DETAILS: recombinant UMI read abundance after kanamycin selection (control-corrected) (log10(CPM+1)); higher = more efficient recombination; extreme values may be limits of the assay; sequences stand for … in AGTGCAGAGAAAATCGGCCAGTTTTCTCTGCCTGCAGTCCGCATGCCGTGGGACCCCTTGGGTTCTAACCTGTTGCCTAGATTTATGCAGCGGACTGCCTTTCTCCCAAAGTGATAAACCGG…AGGTTGGTTTCACT; site = the 11-nt donor
MEASURED QUANTITY: recombinant UMI read abundance (log10)

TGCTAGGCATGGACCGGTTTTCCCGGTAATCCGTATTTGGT (site TACTAGGCTAC)    0.00634
AATGTGACATGGACCGGTTTTCCCGGTAATCCGTATTTGAC (site AATGTGTCTGT)    0
TATTCGGCATGGACCGGTTTTCCCGGTAATCCGTATTTGTG (site TATTGGGCTCA)    0.00845
TGGCCCGCATGGACCGGTTTTCCCGGTAATCCGTATTTGGC (site TGGCCGGCTGC)    0
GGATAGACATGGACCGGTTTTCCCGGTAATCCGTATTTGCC (site GGATAGACTGT)    1.32
TAAAGTTCATGGACCGGTTTTCCCGGTAATCCGTATTTGTA (site TAAAGTTCTTA)    1.59
GTGAAGACATGGACCGGTTTTCCCGGTAATCCGTATTTGCA (site GTGAAGACTTG)    2.72
ACTAGAACATGGACCGGTTTTCCCGGTAATCCGTATTTGAG (site ACTAGAACTTT)    0.286
ACAGTATCATGGACCGGTTTTCCCGGTAATCCGTATTTGAC (site ACAGTATCTGT)    3.52
GTAGGTACATGGACCGGTTTTCCCGGTAATCCGTATTTGTT (site GTAGGTACTAA)    1.01
AGCCTTTCATGGACCGGTTTTCCCGGTAATCCGTATTTGAT (site AGCCTTTCTGT)    0
CTCGGCCCATGGACCGGTTTTCCCGGTAATCCGTATTTGTT (site CACGGCCCTAA)    0.0311
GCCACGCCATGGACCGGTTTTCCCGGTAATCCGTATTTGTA (site GCCACGCCTCA)    0.00817
GTGGAAGCATGGACCGGTTTTCCCGGTAATCCGTATTTGTG (site GTGGAAGCTCA)    2.35
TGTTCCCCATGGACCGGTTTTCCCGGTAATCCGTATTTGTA (site TGATCCCCTTA)    0.0165
CGCTTGGCATGGACCGGTTTTCCCGGTAATCCGTATTTGCT (site CGTTTGGCTAG)    0
TAGCCTTCATGGACCGGTTTTCCCGGTAATCCGTATTTGAT (site TAGCCTTCTAC)    0.0113
GTGAAGACATGGACCGGTTTTCCCGGTAATCCGTATTTGCA (site AGGAAGACTTG)    1.26

###

ASSAY DETAILS: recombinant UMI read abundance after kanamycin selection (control-corrected) (log10(CPM+1)); higher = more efficient recombination; extreme values may be limits of the assay; sequences stand for … in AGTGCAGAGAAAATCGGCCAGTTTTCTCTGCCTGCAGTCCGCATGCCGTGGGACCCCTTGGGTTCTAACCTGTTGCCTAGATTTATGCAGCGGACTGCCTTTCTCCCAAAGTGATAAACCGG…AGGTTGGTTTCACT; site = the 11-nt donor
MEASURED QUANTITY: recombinant UMI read abundance (log10)

ATGGGTACATGGACCGGTTTTCCCGGTAATCCGTATTTGGC (site ATGGGTACTGC)    2.89
CCGCTTACATGGACCGGTTTTCCCGGTAATCCGTATTTGCT (site CCGTTTACTAG)    0
GCCTCGCCATGGACCGGTTTTCCCGGTAATCCGTATTTGTA (site GCCCCGCCTTA)    0.633
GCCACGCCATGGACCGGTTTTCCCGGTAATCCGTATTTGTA (site GCCTCGCCTTA)    0.183
TGGAATACATGGACCGGTTTTCCCGGTAATCCGTATTTGCA (site TGGAATACTTG)    1.86
AACAACCCATGGACCGGTTTTCCCGGTAATCCGTATTTGAA (site AACAACCCTTT)    0.192
TTTCTGCCATGGACCGGTTTTCCCGGTAATCCGTATTTGCG (site TTTCTGCCTCG)    0.0153
TGTACACCATGGACCGGTTTTCCCGGTAATCCGTATTTGAC (site TGTACACCTGT)    0
TTATCTGCATGGACCGGTTTTCCCGGTAATCCGTATTTGTG (site TTACCTGCTCA)    0.0587
AGAATCACATGGACCGGTTTTCCCGGTAATCCGTATTTGAA (site AGAATCACTTT)    2.16
ATATGAACATGGACCGGTTTTCCCGGTAATCCGTATTTGAC (site ATATGAACTGT)    2.9
GCGAAAACATGGACCGGTTTTCCCGGTAATCCGTATTTGGT (site GCGAAAACTAC)    1.58
GCATATCCATGGACCGGTTTTCCCGGTAATCCGTATTTGAC (site GCATATCCTGT)    1.39
CAAGCTGCATGGACCGGTTTTCCCGGTAATCCGTATTTGCT (site CAAGCGGCTAG)    0
GTCCGACCATGGACCGGTTTTCCCGGTAATCCGTATTTGCA (site GTCCGACCTTG)    0
ATGTAGGCATGGACCGGTTTTCCCGGTAATCCGTATTTGTC (site ATGTAGGCTGG)    2.52
ACGTGTGCATGGACCGGTTTTCCCGGTAATCCGTATTTGGT (site ACGTGTGCTAC)    1.99
CGTTAAACATGGACCGGTTTTCCCGGTAATCCGTATTTGAG (site CGTTAGACTCT)    0.00692
TCATACTCATGGACCGGTTTTCCCGGTAATCCGTATTTGCC (site TCATACTCTCG)    0
CGAATACCATGGACCGGTTTTCCCGGTAATCCGTATTTGTA (site CGAATACCTTA)    0
AGGTACCCATGGACCGGTTTTCCCGGTAATCCGTATTTGTG (site AGGTCCCCTCA)    0.0158
GTGCTACCATGGACCGGTTTTCCCGGTAATCCGTATTTGCT (site GTGCTACCTAG)    0.0199
CTTGTATCATGGACCGGTTTTCCCGGTAATCCGTATTTGAC (site CTCGTATCTGT)    0
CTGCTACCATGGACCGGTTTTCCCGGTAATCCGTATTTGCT (site CTGCTACCTAC)    0.00952
TATGAATCATGGACCGGTTTTCCCGGTAATCCGTATTTGCG (site TAAGAATCTCG)    1.85
GTAGGTCCATGGACCGGTTTTCCCGGTAATCCGTATTTGAC (site GTAGGTGCTGT)    0
ACAGTATCATGGACCGGTTTTCCCGGTAATCCGTATTTGCC (site ACAGTATCTAG)    1.42
CAAGAAGCATGGACCGGTTTTCCCGGTAATCCGTATTTGCT (site CAAGGAGCTAG)    1.87
CTAGTATCATGGACCGGTTTTCCCGGTAATCCGTATTTGAG (site CTAGTATCTGT)    1.68
CGAGGCCCATGGACCGGTTTTCCCGGTAATCCGTATTTGGG (site CGAGGTCCTCC)    0.00542
GCAACTGCATGGACCGGTTTTCCCGGTAATCCGTATTTGGC (site GCAACTGCTGC)    1.95
TGGCCGGCATGGACCGGTTTTCCCGGTAATCCGTATTTGGC (site TGGCCGGCTTC)    0.00718
ACCAGTCCATGGACCGGTTTTCCCGGTAATCCGTATTTGCG (site GATGCATCTTA)    0
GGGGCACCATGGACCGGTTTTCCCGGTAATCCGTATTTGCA (site GGGACACCTTG)    0
TACTAGGCATGGACCGGTTTTCCCGGTAATCCGTATTTGGT (site TCCTAGGCTAC)    0.0602
AGGTAGGCATGGACCGGTTTTCCCGGTAATCCGTATTTGGC (site ACGTAGGCTGC)    1.87
